Each entry below carries its reported MIC.
Tested on: Sporothrix schenckii
TEST_NAME: Antifungal activity against Sporothrix schenckii MRSS4 isolate from cutaneous-lymphatic sporotrichosis patient after 72 hrs by Sensititre YeastOne method
Assay type: functional

Enquiry: Given the compound Nc1nc(=O)[nH]cc1F , what is its reported MIC?
Return: 16 µg/mL

Enquiry: Please look up its MIC: OC(Cn1cncn1)(Cn1cncn1)c1ccc(F)cc1F
Return: > 256 µg/mL

Enquiry: # get_value(readout='MIC', item= C[C@@H](c1ncncc1F)[C@](O)(Cn1cncn1)c1ccc(F)cc1F )
Return: 2 µg/mL

Enquiry: Can you share its MIC? I mean this compound: CC(=O)N1CCN(c2ccc(OCC3COC(Cn4ccnc4)(c4ccc(Cl)cc4Cl)O3)cc2)CC1 (centres undefined)
Return: 0.25 µg/mL

###

System: Sporothrix schenckii
TEST_NAME: Antifungal activity against Sporothrix schenckii MRSS4 isolate from cutaneous-lymphatic sporotrichosis patient after 72 hrs by Sensititre YeastOne method
Type: functional
Each entry below carries its recorded MIC.
Give the number; µg/mL is assumed, so skip it.

- COMPOUND: "C[C@@H]1[C@H](O)[C@@H](C)/C=C/C=C/C=C/C=C/C=C/C=C/C=C/[C@H](O[C@@H]2O[C@H](C)[C@@H](O)[C@H](N)[C@@H]2O)C[C@@H]2O[C@](O)(C[C@@H](O)C[C@@H](O)[C@H](O)CC[C@@H](O)C[C@@H](O)CC(=O)O[C@H]1C)C[C@H](O)[C@H]2C(=O)O [AMPHOTERICIN B]"
  UNITS_OF_MEASURE: "µg/mL"
  MEASUREMENT: 0.5

Next up:
Enquiry: Given the compound CCC(C)n1ncn(-c2ccc(N3CCN(c4ccc(OCC5COC(Cn6cncn6)(c6ccc(Cl)cc6Cl)O5)cc4)CC3)cc2)c1=O (configuration not stated) [ITRACONAZOLE] , what is its reported MIC?
Return: 0.25

###

System: Sporothrix schenckii
TEST_NAME: Antifungal activity against Sporothrix schenckii P24255 isolate from cutaneous-lymphatic sporotrichosis patient after 72 hrs by Sensititre YeastOne method
Format: functional
READOUT_LABEL: MIC (µg/mL)
State the answer as a number, implicitly in µg/mL.

- MOLECULE: "CCC(C)n1ncn(-c2ccc(N3CCN(c4ccc(OCC5COC(Cn6cncn6)(c6ccc(Cl)cc6Cl)O5)cc4)CC3)cc2)c1=O (stereo unspecified) [ITRACONAZOLE]"
  MIC, µg/mL: 0.25
- MOLECULE: "CC(=O)N1CCN(c2ccc(OCC3COC(Cn4ccnc4)(c4ccc(Cl)cc4Cl)O3)cc2)CC1 (stereo unspecified) [KETOCONAZOLE]"
  MIC, µg/mL: 0.125

Enquiry: If you can, please state the reported MIC value of C[C@@H](c1ncncc1F)[C@](O)(Cn1cncn1)c1ccc(F)cc1F [VORICONAZOLE] .
Return: 4

Enquiry: Find the recorded MIC belonging to Nc1nc(=O)[nH]cc1F [FLUCYTOSINE] and report it.
Return: 16

Enquiry: Item C[C@@H]1[C@H](O)[C@@H](C)/C=C/C=C/C=C/C=C/C=C/C=C/C=C/[C@H](O[C@@H]2O[C@H](C)[C@@H](O)[C@H](N)[C@@H]2O)C[C@@H]2O[C@](O)(C[C@@H](O)C[C@@H](O)[C@H](O)CC[C@@H](O)C[C@@H](O)CC(=O)O[C@H]1C)C[C@H](O)[C@H]2C(=O)O [AMPHOTERICIN B] has what recorded MIC?
Return: 0.5

###

Tested on: Sporothrix schenckii
TEST_NAME: Antifungal activity against Sporothrix schenckii P24255 isolate from cutaneous-lymphatic sporotrichosis patient after 72 hrs by ATB Fungus 2 method
Assay type: functional
READOUT_LABEL: MIC (µg/mL)
Field: numeric (µg/mL). Do not append units.

Enquiry: // returns reported MIC for input C[C@@H]1[C@H](O)[C@@H](C)/C=C/C=C/C=C/C=C/C=C/C=C/C=C/[C@H](O[C@@H]2O[C@H](C)[C@@H](O)[C@H](N)[C@@H]2O)C[C@@H]2O[C@](O)(C[C@@H](O)C[C@@H](O)[C@H](O)CC[C@@H](O)C[C@@H](O)CC(=O)O[C@H]1C)C[C@H](O)[C@H]2C(=O)O [AMPHOTERICIN B]
Return: 2

Enquiry: Which measured MIC value corresponds to Nc1nc(=O)[nH]cc1F [FLUCYTOSINE] ?
Return: 64

Enquiry: Any idea what MIC was measured for OC(Cn1cncn1)(Cn1cncn1)c1ccc(F)cc1F [FLUCONAZOLE] ?
Return: 128

Enquiry: Endpoint output: MIC of CCC(C)n1ncn(-c2ccc(N3CCN(c4ccc(OCC5COC(Cn6cncn6)(c6ccc(Cl)cc6Cl)O5)cc4)CC3)cc2)c1=O (centres undefined) [ITRACONAZOLE] . Value?
Return: 1

###

Listed below: MIC values for each entry.
Test system: Sporothrix schenckii
TEST_NAME: Antifungal activity against Sporothrix schenckii SSA29 isolate from cutaneous-lymphatic sporotrichosis patient after 72 hrs by modified NCCLS M38-A method
Assay type: functional
# value in µg/mL; strip the unit string

- MOLECULE: "CCC(C)n1ncn(-c2ccc(N3CCN(c4ccc(OCC5COC(Cn6cncn6)(c6ccc(Cl)cc6Cl)O5)cc4)CC3)cc2)c1=O (centres undefined)"
  UNITS_OF_MEASURE: "µg/mL"
  MIC: 0.5

Kindly consider the entry below.
Enquiry: Given the entry C[C@@H](c1ncncc1F)[C@](O)(Cn1cncn1)c1ccc(F)cc1F , report its measured MIC.
Return: 8

###

System: Sporothrix schenckii
TEST_NAME: Antifungal activity against Sporothrix schenckii P14036 isolate from cutaneous-lymphatic sporotrichosis patient after 72 hrs by Sensititre YeastOne method
Assay type: functional
READOUT_LABEL: MIC (µg/mL)
Give the value in µg/mL but do not write µg/mL after it.

Previously resolved entries follow.
- MOLECULE: "CC(=O)N1CCN(c2ccc(OCC3COC(Cn4ccnc4)(c4ccc(Cl)cc4Cl)O3)cc2)CC1 (stereo unspecified) [KETOCONAZOLE]"
  MIC [µg/mL]: 0.125
- MOLECULE: "Nc1nc(=O)[nH]cc1F [FLUCYTOSINE]"
  MIC [µg/mL]: 32
- MOLECULE: "C[C@@H]1[C@H](O)[C@@H](C)/C=C/C=C/C=C/C=C/C=C/C=C/C=C/[C@H](O[C@@H]2O[C@H](C)[C@@H](O)[C@H](N)[C@@H]2O)C[C@@H]2O[C@](O)(C[C@@H](O)C[C@@H](O)[C@H](O)CC[C@@H](O)C[C@@H](O)CC(=O)O[C@H]1C)C[C@H](O)[C@H]2C(=O)O [AMPHOTERICIN B]"
  MIC [µg/mL]: 0.5
- MOLECULE: "C[C@@H](c1ncncc1F)[C@](O)(Cn1cncn1)c1ccc(F)cc1F [VORICONAZOLE]"
  MIC [µg/mL]: 0.5

Now consider the entry below.
Enquiry: Dear colleague, I am looking for the recorded MIC of the following molecule: CCC(C)n1ncn(-c2ccc(N3CCN(c4ccc(OCC5COC(Cn6cncn6)(c6ccc(Cl)cc6Cl)O5)cc4)CC3)cc2)c1=O (stereo unspecified) [ITRACONAZOLE]
Return: 0.25

###

Below, each entry is listed with its recorded MIC.
System: Pichia kudriavzevii
TEST_NAME: Antifungal activity against Candida krusei ATCC 6258 […] after 72 hrs by ATB Fungus 2 method
Assay type: functional
ASSAY_CONTEXT: ATCC 6258, 72 h
Write it as a number; the unit µg/mL goes unstated.

- MOLECULE: "OC(Cn1cncn1)(Cn1cncn1)c1ccc(F)cc1F"
  READOUT_LABEL: "MIC"
  UNITS_OF_MEASURE: "µg/mL"
  MEASUREMENT: 32

Enquiry: Entry under review: CCC(C)n1ncn(-c2ccc(N3CCN(c4ccc(OCC5COC(Cn6cncn6)(c6ccc(Cl)cc6Cl)O5)cc4)CC3)cc2)c1=O (centres undefined) . Reported MIC?
Return: 0.5

Enquiry: Quick one: MIC of Nc1nc(=O)[nH]cc1F ?
Return: 32

###

Collected MIC values appear next to each entry.
System: Sporothrix schenckii
TEST_NAME: Antifungal activity against Sporothrix schenckii P24255 isolate from cutaneous-lymphatic sporotrichosis patient after 72 hrs by modified NCCLS M38-A method
Assay type: functional

Worked cases, MIC given:
- COMPOUND: "C[C@@H](c1ncncc1F)[C@](O)(Cn1cncn1)c1ccc(F)cc1F [VORICONAZOLE]"
  READOUT_LABEL: "MIC"
  MEASUREMENT: "8 µg/mL"
- COMPOUND: "OC(Cn1cncn1)(Cn1cncn1)c1ccc(F)cc1F [FLUCONAZOLE]"
  READOUT_LABEL: "MIC"
  MEASUREMENT: "> 64 µg/mL"
- COMPOUND: "CCC(C)n1ncn(-c2ccc(N3CCN(c4ccc(OCC5COC(Cn6cncn6)(c6ccc(Cl)cc6Cl)O5)cc4)CC3)cc2)c1=O (centres undefined) [ITRACONAZOLE]"
  READOUT_LABEL: "MIC"
  MEASUREMENT: "0.5 µg/mL"

Here's the next entry for you.
Enquiry: Which MIC value belongs to C[C@@H]1[C@H](O)[C@@H](C)/C=C/C=C/C=C/C=C/C=C/C=C/C=C/[C@H](O[C@@H]2O[C@H](C)[C@@H](O)[C@H](N)[C@@H]2O)C[C@@H]2O[C@](O)(C[C@@H](O)C[C@@H](O)[C@H](O)CC[C@@H](O)C[C@@H](O)CC(=O)O[C@H]1C)C[C@H](O)[C@H]2C(=O)O [AMPHOTERICIN B] ?
Return: 2 µg/mL
